Recorded values, source ChEMBL document CHEMBL4038329.

System: HEK293
Test: Activation of GAL4 fused human RXR expressed in HEK293 cells at 10 uM after 24 hrs by luciferase reporter gene assay
Calls of active or inactive are those of the source. The calls are words filed in the database; no cut-off is given here.
assay.endpoint: Activity

| compound.string | target.desc | Activity |
| --- | --- | --- |
| CC[C@H](C(=O)C[C@@H](C)[C@H]1CC[C@H]2[C@@H]3CC=C4C[C@@H](O)CC[C@]4(C)[C@H]3CC[C@]12C)C(C)C | HEK293 | inactive |
| CC(C)[C@@H](C)[C@@H]1O[C@H]1[C@@H](C)[C@H]1CC[C@H]2C3=CC=C4C[C@@H](O)CC[C@]4(C)[C@H]3CC[C@]12C | HEK293 | inactive |
| CC(C)[C@@H](C)CC(=O)[C@@H](C)[C@H]1CC[C@H]2C3=CC=C4C[C@@H](O)CC[C@]4(C)[C@H]3CC[C@]12C | HEK293 | inactive |
| CC[C@@H](C(C)C)[C@H]1O[C@@H]1[C@@H](C)[C@H]1CC[C@H]2[C@@H]3CC=C4C[C@@H](O)CC[C@]4(C)[C@H]3CC[C@]12C | HEK293 | inactive |
| CC(C)[C@@H](C)[C@H]1O[C@@H]1[C@@H](C)[C@H]1CC[C@H]2C3=CC=C4C[C@@H](O)CC[C@]4(C)[C@H]3CC[C@]12C | HEK293 | inactive |

Item under review: CC(C)[C@@H](C)C[C@H](O)[C@@H](C)[C@H]1CC[C@H]2C3=CC=C4C[C@@H](O)CC[C@]4(C)[C@H]3CC[C@]12C . Reported Activity?
inactive

----------
Molecular target: Oxysterols receptor LXR-alpha (Homo sapiens) (UniProt Q13133)
Sequence (Q13133 whole entry, the tested form may be a part): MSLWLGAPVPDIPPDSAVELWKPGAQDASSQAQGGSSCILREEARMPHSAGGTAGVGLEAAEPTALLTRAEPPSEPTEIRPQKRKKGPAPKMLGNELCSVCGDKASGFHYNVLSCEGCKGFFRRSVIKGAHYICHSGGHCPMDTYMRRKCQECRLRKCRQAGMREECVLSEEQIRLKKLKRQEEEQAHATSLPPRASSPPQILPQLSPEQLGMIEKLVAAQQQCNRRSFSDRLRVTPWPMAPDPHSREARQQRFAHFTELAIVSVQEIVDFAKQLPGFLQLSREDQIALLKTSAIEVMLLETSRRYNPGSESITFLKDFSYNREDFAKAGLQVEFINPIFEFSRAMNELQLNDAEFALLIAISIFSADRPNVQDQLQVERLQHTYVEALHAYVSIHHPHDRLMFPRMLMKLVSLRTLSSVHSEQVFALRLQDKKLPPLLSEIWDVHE
Test: Activation of GAL4 fused human LXR alpha expressed in HEK293 cells after 24 hrs by luciferase reporter gene assay relative to 22R-HC
Type: cell-based
assay.endpoint: Efficacy
Please format your answer as a value with the unit trailing.

Query (compound): CC(C)[C@@H](C)[C@@H](O)C[C@@H](C)[C@H]1CC[C@H]2C3=CC=C4C[C@@H](O)CC[C@]4(C)[C@H]3CC[C@]12C ; field requested: Efficacy
159%

One more compound: CC[C@@H](C(C)C)[C@H]1O[C@@H]1[C@@H](C)[C@H]1CC[C@H]2[C@@H]3CC=C4C[C@@H](O)CC[C@]4(C)[C@H]3CC[C@]12C
489%

Now consider CC(C)[C@@H](C)[C@H](O)C[C@@H](C)[C@H]1CC[C@H]2C3=CC=C4C[C@@H](O)CC[C@]4(C)[C@H]3CC[C@]12C .
63.9%

Repeat with CC(C)[C@@H](C)CC(=O)[C@@H](C)[C@H]1CC[C@H]2C3=CC=C4C[C@@H](O)CC[C@]4(C)[C@H]3CC[C@]12C
70.2%

Same thing, different compound: CC[C@@H](C(C)C)[C@@H]1O[C@H]1[C@@H](C)[C@H]1CC[C@H]2[C@@H]3CC=C4C[C@@H](O)CC[C@]4(C)[C@H]3CC[C@]12C
56.8%

What do we get for CC(C)[C@@H](C)[C@H]1O[C@@H]1[C@@H](C)[C@H]1CC[C@H]2C3=CC=C4C[C@@H](O)CC[C@]4(C)[C@H]3CC[C@]12C ?
93.2%

Param item: CC(C)[C@@H](C)C(=O)C[C@@H](C)[C@H]1CC[C@H]2C3=CC=C4C[C@@H](O)CC[C@]4(C)[C@H]3CC[C@]12C
151%

Try this compound too: CC[C@H](C(=O)C[C@@H](C)[C@H]1CC[C@H]2[C@@H]3CC=C4C[C@@H](O)CC[C@]4(C)[C@H]3CC[C@]12C)C(C)C
12.4%

Moving on to the next compound: CC(C)[C@@H](C)[C@@H]1O[C@H]1[C@@H](C)[C@H]1CC[C@H]2C3=CC=C4C[C@@H](O)CC[C@]4(C)[C@H]3CC[C@]12C
51.7%
